// data source = ChEMBL document CHEMBL5620408

Target Entity: Cytochrome P450 2C19 (Homo sapiens, UniProt P33261)
Sequence (P33261 whole entry): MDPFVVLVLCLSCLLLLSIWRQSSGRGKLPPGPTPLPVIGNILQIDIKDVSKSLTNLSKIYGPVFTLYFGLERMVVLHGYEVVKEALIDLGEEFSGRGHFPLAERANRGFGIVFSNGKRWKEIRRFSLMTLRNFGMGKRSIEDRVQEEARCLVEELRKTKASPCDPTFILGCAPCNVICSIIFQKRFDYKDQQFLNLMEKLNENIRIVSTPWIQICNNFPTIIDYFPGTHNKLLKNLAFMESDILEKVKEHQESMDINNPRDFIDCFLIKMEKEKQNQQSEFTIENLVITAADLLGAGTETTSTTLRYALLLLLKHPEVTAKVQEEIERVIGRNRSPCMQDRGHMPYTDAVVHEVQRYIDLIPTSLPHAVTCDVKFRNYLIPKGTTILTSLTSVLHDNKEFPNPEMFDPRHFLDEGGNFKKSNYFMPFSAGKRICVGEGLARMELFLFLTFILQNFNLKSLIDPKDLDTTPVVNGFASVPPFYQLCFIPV
pIC50: −log10 of the molar value.

Mol Smiles: Cc1cc(/C=C/C#N)cc(C)c1Oc1ccnc(Nc2ccc(N3CCS(=O)(=O)CC3)c(F)c2)n1
pIC50: 5.28

---

Assay Overview: Cytotoxicity against human MT4 cells assessed as reduction in cell viability by MTT assay
Assay type: toxicity, cell-based
Reported Metric: CC50

Mol Smiles: Cc1cc(/C=C/C#N)cc(C)c1Oc1ccnc(Nc2ccc(N3CCN(S(=O)(=O)C(C)C)CC3)cc2)n1
Meas Value: 1.73 µM
//
Mol Smiles: Cc1cc(/C=C/C#N)cc(C)c1Oc1ccnc(Nc2ccc(N3CC[S+]([O-])CC3)c(F)c2)n1
Meas Value: 13.3 µM
//
Mol Smiles: Cc1ccnc2c1NC(=O)c1cccnc1N2C1CC1
Meas Value: > 15 µM
//
Mol Smiles: Cc1cc(C#N)cc(C)c1Oc1ccnc(Nc2ccc(N3CCN(S(=O)(=O)N(C)C)CC3)c(F)c2)n1
Meas Value: 186 µM
//
Mol Smiles: O=C1Nc2ccc(Cl)cc2[C@@](C#CC2CC2)(C(F)(F)F)O1
Meas Value: > 6.33 µM
//
Mol Smiles: Cc1cc(/C=C/C#N)cc(C)c1Oc1ccnc(Nc2ccc(C3CCN(S(=O)(=O)C(C)C)CC3)cc2)n1
Meas Value: 2.38 µM
//
Mol Smiles: Cc1cc(/C=C/C#N)cc(C)c1Oc1ccnc(Nc2ccc(N3CCN(S(=O)(=O)C4CC4)CC3)c(F)c2)n1
Meas Value: 170 µM
//
Mol Smiles: Cc1cc(C#N)cc(C)c1Oc1ccnc(Nc2ccc(N3CCN(S(=O)(=O)C4CC4)CC3)c(F)c2)n1
Meas Value: > 239 µM
//
Mol Smiles: CCS(=O)(=O)N1CCN(c2ccc(Nc3nccc(Oc4c(C)cc(/C=C/C#N)cc4C)n3)cc2F)CC1
Meas Value: 111 µM
//
Mol Smiles: Cc1cc(/C=C/C#N)cc(C)c1Oc1ccnc(Nc2ccc(N3CCN(S(=O)(=O)N(C)C)CC3)c(F)c2)n1
Meas Value: 4.59 µM

---

Target Entity: Cytochrome P450 2C9 (Homo sapiens, UniProt P11712)
Sequence (P11712 whole entry): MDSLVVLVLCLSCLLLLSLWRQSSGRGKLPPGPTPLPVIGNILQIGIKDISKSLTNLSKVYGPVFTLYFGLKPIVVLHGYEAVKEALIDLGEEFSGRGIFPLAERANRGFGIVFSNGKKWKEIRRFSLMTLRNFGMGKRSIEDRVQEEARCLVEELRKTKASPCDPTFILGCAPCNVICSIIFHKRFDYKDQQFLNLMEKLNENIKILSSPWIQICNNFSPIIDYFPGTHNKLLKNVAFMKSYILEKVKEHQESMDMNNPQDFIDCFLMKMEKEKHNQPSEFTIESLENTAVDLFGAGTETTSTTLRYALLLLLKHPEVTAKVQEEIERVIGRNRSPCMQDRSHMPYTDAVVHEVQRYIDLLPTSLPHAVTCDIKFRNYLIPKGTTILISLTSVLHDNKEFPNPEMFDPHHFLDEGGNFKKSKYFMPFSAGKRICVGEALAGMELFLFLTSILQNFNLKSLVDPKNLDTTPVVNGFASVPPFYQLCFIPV
Reported Metric: IC50 (µM)

Mol Smiles: Cc1cc(/C=C/C#N)cc(C)c1Oc1ccnc(Nc2ccc(N3CCS(=O)(=O)CC3)c(F)c2)n1
Meas Value: 5.57

---

Tested on: Human immunodeficiency virus 1
Assay Overview: Antiviral activity against HIV1 NL4-3 infected in MT4 cells at 25 ng/ml
Type: functional, organism-based
The source made the active and inactive calls. No cut-off for these calls is given here.

Mol Smiles: CCS(=O)(=O)N1CCN(c2ccc(Nc3nccc(Oc4c(C)cc(C#N)cc4C)n3)cc2)CC1
Activity: inactive
//
Mol Smiles: Cc1cc(C#N)cc(C)c1Oc1ccnc(Nc2ccc(N3CCN(S(C)(=O)=O)CC3)cc2)n1
Activity: inactive
//
Mol Smiles: CCS(=O)(=O)N1CCC(c2ccc(Nc3nccc(Oc4c(C)cc(C#N)cc4C)n3)cc2)CC1
Activity: inactive

---

Assay Overview: AUCt in Sprague-Dawley rat at 2 mg/kg, iv
Type: ADME, organism-based
Condition Info: in vivo

Mol Smiles: Cc1cc(/C=C/C#N)cc(C)c1Oc1ccnc(Nc2ccc(N3CCS(=O)(=O)CC3)c(F)c2)n1
AUC(0-t) / ng·h/mL: 297
